Study system: T1, ANTIBODY EXPRESSION CONTROL
T1 construct: also called mouse anti-canine antibody (capture reagent of the expression control ELISA)
Experiment: SPR Biacore, expression control
// Kd lookup, one value per entry

Binder	Kd
Mu_09E09_VH (SEQ ID NO: 35)_F105A (antibody, V domains shown) VH: DVKLVESGEGLVKPGGSLKLSCAASGFTFSSYAMSWVRQTPEKRLEWVAYISSGGDYIYYADTVKGRFTISRDNARNTLYLQMSSLKSEDTAMYYCTRDPITGTAAYWGQGTLVTVSA VL: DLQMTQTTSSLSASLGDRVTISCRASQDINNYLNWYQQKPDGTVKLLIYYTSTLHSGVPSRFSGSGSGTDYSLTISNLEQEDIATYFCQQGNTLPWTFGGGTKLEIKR	138 pM
Mu_19F07_VH (SEQ ID NO: 47)_Y33A (antibody, V domains shown) VH: EVKLVESEGGLVQPGSSMKLSCTASGFTFSDYAMAWVRQVPEKGLEWVANINYDGSSTYYLDSLKSRFIISRDNAKNILYLQMSSLKSEDTATYYCARGLTWDFDVWGTGTTVTVSS VL: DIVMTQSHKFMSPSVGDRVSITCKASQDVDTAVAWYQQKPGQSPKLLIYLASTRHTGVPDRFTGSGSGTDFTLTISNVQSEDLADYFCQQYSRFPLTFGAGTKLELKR	202 pM

The origin of these recorded values is patent US20220177594A1.
